These measurements were taken from BigSolDB 2.1.

CONDITION_DETAILS: in water, 308.15 K

COMPOUND	solubility (mole fraction)
O=C(NC(Cc1cc(=O)[nH]c2ccccc12)C(=O)O)c1ccc(Cl)cc1 (stereo unspecified)	1.3e-06

====

CONDITION_DETAILS: in water, 288.15 K

COMPOUND	solubility (mole fraction)
O=C(NC(Cc1cc(=O)[nH]c2ccccc12)C(=O)O)c1ccc(Cl)cc1 (stereo unspecified)	5.29e-07

====

CONDITION_DETAILS: in ethanol, 298.15 K
MEASURED_PARAMETER: solubility (mole fraction)

COMPOUND	VALUE_OBSERVED
O=C(NC(Cc1cc(=O)[nH]c2ccccc12)C(=O)O)c1ccc(Cl)cc1 (stereo unspecified)	9.66e-05
